assay: self-splicing fitness, log relative to wild type (ln ratio); higher = more splicing; Tetrahymena group I intron in knt gene, E. coli kanamycin selection, DiMSum; sequences stand for … in CUCUCU…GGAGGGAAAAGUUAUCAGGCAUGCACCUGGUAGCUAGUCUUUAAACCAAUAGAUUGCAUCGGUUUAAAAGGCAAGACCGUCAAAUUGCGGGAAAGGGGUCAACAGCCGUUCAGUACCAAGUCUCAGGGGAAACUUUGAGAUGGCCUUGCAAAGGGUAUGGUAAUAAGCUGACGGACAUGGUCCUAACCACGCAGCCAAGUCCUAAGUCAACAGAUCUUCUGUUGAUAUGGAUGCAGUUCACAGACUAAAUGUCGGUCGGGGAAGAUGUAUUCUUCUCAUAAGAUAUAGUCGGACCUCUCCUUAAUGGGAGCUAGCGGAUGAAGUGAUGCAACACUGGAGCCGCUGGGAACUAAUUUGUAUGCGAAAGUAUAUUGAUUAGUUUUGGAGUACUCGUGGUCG; settings: 30 °C;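 note: selection with 25 µg/mL kanamycin versus none on LB agar overnight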
Measured Parameter: self-splicing fitness (ln)
Kindly provide the number alone.

UUUUAGCAAUAUUACGGAGC: -2.24
AUAAAGCAAUAUUACGGACC: -0.681

Input CCCAAGCAAUAUUACGGUGA . Output self-splicing fitness (ln): -1.27

Input UGCAAGCAAUAUUACGUAAC . Output self-splicing fitness (ln): -4.96

Input AGUGAGCAAUAUUACGCUAU . Output self-splicing fitness (ln): -3.19

###

The reader will find reported self-splicing fitness (ln) values listed item by item below.
test: self-splicing fitness, log relative to wild type (ln ratio); higher = more splicing; Tetrahymena group I intron in knt gene, E. coli kanamycin selection, DiMSum; sequences stand for … in CUCUCU…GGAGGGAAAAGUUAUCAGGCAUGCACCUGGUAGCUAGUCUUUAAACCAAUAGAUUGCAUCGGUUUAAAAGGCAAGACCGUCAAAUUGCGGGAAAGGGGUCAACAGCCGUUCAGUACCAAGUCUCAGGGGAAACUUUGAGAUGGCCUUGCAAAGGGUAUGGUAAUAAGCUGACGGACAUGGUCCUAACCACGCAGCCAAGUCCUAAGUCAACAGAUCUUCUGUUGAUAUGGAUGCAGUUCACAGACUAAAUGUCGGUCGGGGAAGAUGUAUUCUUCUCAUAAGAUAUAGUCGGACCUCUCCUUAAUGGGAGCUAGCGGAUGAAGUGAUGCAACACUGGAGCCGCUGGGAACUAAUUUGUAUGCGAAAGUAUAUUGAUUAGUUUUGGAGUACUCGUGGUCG; details: 37 °C
Kindly provide the number alone.

Example cases with answers are listed next.
AUGGAGCAAUAUUACGUACU: -0.491
UAAAAGCAAUAUUACGUAUG: -0.324
GUGCAGCAAUAUUACGGCGC: -2.41
GCUUAGCAAUAUUACGUUUA: -1.17

Input UUAUAGCAAUAUUACGUGUU . Output self-splicing fitness (ln): -3.11

Input AUCAAGCAAUAUUACGAUGA . Output self-splicing fitness (ln): -0.19

Input AACCAGCAAUAUUACGUUUU . Output self-splicing fitness (ln): -1.27

Input ACGGAGCAAUAUUACGCUUG . Output self-splicing fitness (ln): -0.212

Input GCGAAGCAAUAUUACGAACA . Output self-splicing fitness (ln): -1.16

Input GAGGAGCAAUAUUACGUCUG . Output self-splicing fitness (ln): -1.07

Input UCGGAGCAAUAUUACGCUCU . Output self-splicing fitness (ln): -1.68

Input ACGAAGCAAUAUUACGUAAG . Output self-splicing fitness (ln): -1.05

Input UCGUAGCAAUAUUACGAAGU . Output self-splicing fitness (ln): -3.06

###

experiment: self-splicing fitness, log relative to wild type (ln ratio); higher = more splicing; Tetrahymena group I intron in knt gene, E. coli kanamycin selection, DiMSum; sequences stand for … in CUCUCU…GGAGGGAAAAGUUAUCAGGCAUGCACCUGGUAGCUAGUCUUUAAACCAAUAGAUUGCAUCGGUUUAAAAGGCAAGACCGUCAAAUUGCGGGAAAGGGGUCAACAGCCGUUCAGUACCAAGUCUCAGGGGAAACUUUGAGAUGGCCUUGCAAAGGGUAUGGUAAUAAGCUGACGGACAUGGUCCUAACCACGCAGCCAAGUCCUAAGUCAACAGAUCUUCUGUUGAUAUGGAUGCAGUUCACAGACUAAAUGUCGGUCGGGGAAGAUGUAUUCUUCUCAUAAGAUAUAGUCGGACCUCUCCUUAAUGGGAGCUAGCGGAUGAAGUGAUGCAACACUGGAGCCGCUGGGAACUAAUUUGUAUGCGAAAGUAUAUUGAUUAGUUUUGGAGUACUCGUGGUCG; settings: 30 °C
Response field class: enum, chosen by comparing self-splicing fitness (ln) against A: < -3; B: ≥ -3 and < -2; C: ≥ -2

Example entries begin here.
GCAGAGCAAUAUUACGGAGU: A
CACAAGCAAUAUUACGAAUG: C
ACGCAGCAAUAUUACGAUGA: C
CUCUAGCAAUAUUACGUUAG: A
CUGUAGCAAUAUUACGGACU: A
GGUAAGCAAUAUUACGGAAU: A
UAAAAGCAAUAUUACGUCAA: C
GAUCAGCAAUAUUACGAAAU: C

[in] Please let me know in which category the item AGCAAGCAAUAUUACGUUGU belongs.
[out] A

[in] Please let me know in which category the item AGCUAGCAAUAUUACGCGUC belongs.
[out] A

[in] Please let me know in which category the item GGGAAGCAAUAUUACGAUCG belongs.
[out] C

[in] Please let me know in which category the item CGAGAGCAAUAUUACGCACC belongs.
[out] C

[in] Please let me know in which category the item GGAAAGCAAUAUUACGGCGU belongs.
[out] C

[in] Please let me know in which category the item CCCUAGCAAUAUUACGUCAC belongs.
[out] B

[in] Please let me know in which category the item CGGAAGCAAUAUUACGCUAA belongs.
[out] B

[in] Please let me know in which category the item UUGGAGCAAUAUUACGGACA belongs.
[out] B

[in] Please let me know in which category the item CUUAAGCAAUAUUACGUGUC belongs.
[out] A

[in] Please let me know in which category the item GGUCAGCAAUAUUACGCAAA belongs.
[out] C

[in] Please let me know in which category the item UGUUAGCAAUAUUACGUUUU belongs.
[out] A

[in] Please let me know in which category the item UGUGAGCAAUAUUACGGAUA belongs.
[out] C

[in] Please let me know in which category the item CCUUAGCAAUAUUACGCUGG belongs.
[out] C

###

assay: self-splicing fitness, log relative to wild type (ln ratio); higher = more splicing; Tetrahymena group I intron in knt gene, E. coli kanamycin selection, DiMSum; sequences stand for … in CUCUCU…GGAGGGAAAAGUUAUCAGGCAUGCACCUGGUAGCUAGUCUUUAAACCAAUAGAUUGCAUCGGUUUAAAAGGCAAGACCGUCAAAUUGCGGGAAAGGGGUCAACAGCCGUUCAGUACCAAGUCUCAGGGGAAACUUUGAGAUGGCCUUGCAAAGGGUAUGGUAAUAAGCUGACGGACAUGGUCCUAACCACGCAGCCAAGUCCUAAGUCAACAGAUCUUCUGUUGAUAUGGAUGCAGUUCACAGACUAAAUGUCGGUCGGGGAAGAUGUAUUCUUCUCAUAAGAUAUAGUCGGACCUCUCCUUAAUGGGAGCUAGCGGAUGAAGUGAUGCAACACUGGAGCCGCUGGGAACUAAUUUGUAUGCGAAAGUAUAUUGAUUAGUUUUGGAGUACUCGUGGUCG; conditions: 30 °C
Measured Parameter: self-splicing fitness (ln)
Kindly provide the number alone.

Example cases with answers are listed next.
CAACAGCAAUAUUACGGAAA: -3.2
GUUGAGCAAUAUUACGAAGG: -3.35
UCUUAGCAAUAUUACGGGCU: -4.8
GUGGAGCAAUAUUACGAUGA: -1.37
CUUUAGCAAUAUUACGAGGA: -2.59
AUACAGCAAUAUUACGUGCA: -1.01
AAUCAGCAAUAUUACGGCUU: 0.103
UGGUAGCAAUAUUACGGGAA: -2.02

Input UCCCAGCAAUAUUACGGCCU . Output self-splicing fitness (ln): -2.43

Input CUAGAGCAAUAUUACGCAGA . Output self-splicing fitness (ln): -2.47

Input CUGUAGCAAUAUUACGCGAU . Output self-splicing fitness (ln): -4.41

Input GAGAAGCAAUAUUACGAUAG . Output self-splicing fitness (ln): -3.28

Input GUUUAGCAAUAUUACGAUGU . Output self-splicing fitness (ln): -1.16

Input UCCUAGCAAUAUUACGACGG . Output self-splicing fitness (ln): -2.14

Input UCACAGCAAUAUUACGCAUA . Output self-splicing fitness (ln): -2.02

Input CCGCAGCAAUAUUACGUGCA . Output self-splicing fitness (ln): -3.71

Input UGGCAGCAAUAUUACGAUAU . Output self-splicing fitness (ln): -2.5

Input GAGAAGCAAUAUUACGGCCG . Output self-splicing fitness (ln): -0.178

Input AUUGAGCAAUAUUACGCUAU . Output self-splicing fitness (ln): -3.5

Input CGGUAGCAAUAUUACGGAGA . Output self-splicing fitness (ln): -3.87

Input CUCAAGCAAUAUUACGGGGC . Output self-splicing fitness (ln): -4.64

Input ACUCAGCAAUAUUACGCGCC . Output self-splicing fitness (ln): -1.17

Input UAGGAGCAAUAUUACGAGUU . Output self-splicing fitness (ln): -3.51
